- Tested on: EKVX NSCLC
- TEST DETAILS: NCI tumour cell line growth inhibition, 48 h
Collected GI50 values appear next to each entry.

CCOC(=O)Oc1c(OC)cc(C(=O)c2ccc(OC)c(O)c2OC)cc1OC = 2.54 µM
O=C1/C(=C/c2ccc([N+](=O)[O-])cc2)CN(C(=O)CCN2CCC(=NO)CC2)C/C1=C\c1ccc([N+](=O)[O-])cc1 = 2.3 µM

Prompt: Please give measured GI50 of the following entry: O=C(/C=C(/C=C/c1ccc2[nH]ccc2c1)OB(F)F)/C=C/c1ccc2[nH]ccc2c1
Response: 3.17 µM

Prompt: For the compound CC[O-].CC[O-].O=C([CH-]C(=O)c1ccccc1)CCCCCCCCC(=O)[CH-]C(=O)c1ccccc1.[Ti+4] , report GI50.
Response: > 100 µM

Prompt: Complete the entry with GI50 for O=C(O)c1nc(NCc2nc3cc(Cl)ccc3o2)n[nH]1
Response: > 100 µM

Prompt: Give GI50 for the following compound: C=C1CCC2C3(C)COC(C)(C)OC3CCC2(C)C1C/C=C1/C(=O)OCC1OC(C)=O (stereo not drawn)
Response: 9.5 µM

Prompt: Supply recorded GI50 for CC1=C2C(=C[C@@](C)(CO)[C@@H]2OC(=O)N(C)CCN(C)C(=O)OC(C)(C)C)C(=O)[C@](C)(O)C12CC2 here.
Response: 10.7 µM

Prompt: Consider the compound CCc1c2c(nc3ccc(OCc4ccc(B(O)O)cc4)cc13)-c1cc3c(c(=O)n1C2)COC(=O)[C@]3(O)CC and give its recorded GI50.
Response: 0.614 µM

###

- Test system: MDA-MB-231 breast
- TEST DETAILS: NCI tumour cell line growth inhibition, 48 h
MEASURE NAME: TGI (µM)
Lab book: enter the figure in µM, no units written.

CC1=C([Se]CC(OC(=O)CC[Se]c2ccccc2)C(=O)NC(C)(C)C)C(=O)c2ccccc2C1=O (stereo not given) = 3.01
FC(F)(F)c1cccc(-c2nc3nc(Cl)c(Cl)nc3[nH]2)c1 = 8.39
N#C[Se]Cc1cc(-c2ccccc2)n(-c2ccc(S(N)(=O)=O)cc2)n1 = 3.12

Now look at this one.
Prompt: Given C=C1CCC2C3(C)COC(C)(C)OC3CCC2(C)C1C/C=C1/C(=O)OCC1OC(C)=O (stereo not given) , respond with its TGI.
Response: 22.6

###

Reported TGI values for a set of molecules
- Tested on: SK-MEL-5 melanoma
- TEST DETAILS: NCI tumour cell line growth inhibition, 48 h

COC1CC(N)(c2ccccc2)C(O)C(C)O1 (configuration not stated) = > 100 µM
C/C(CC(O)(C(F)(F)F)C(F)(F)F)=N\NC(N)=O = > 10 µM
Cc1ccc(Nc2nc3[nH]ccc3c(=O)[nH]2)cc1 = > 100 µM
CN(C)CCNc1ccc2c(=O)n(CCN(C)C)c(=O)n3c4ccc(O)cc4c(=O)c1c23 = 0.211 µM
CC[O-].CC[O-].O=C([CH-]C(=O)c1ccccc1)CCCCCCCCC(=O)[CH-]C(=O)c1ccccc1.[Ti+4] = > 100 µM

Prompt: Give the measured TGI for Cc1ccc(C)c(NC(=O)C(=O)C(C(=O)c2ccc3ccccc3c2)C2OC(=O)c3ccccc32)c1 (configuration not stated)
Response: 31.5 µM

Prompt: Give the reported TGI for this molecule. N#CC(N)=Nc1ccccc1
Response: > 100 µM

###

GI50 tested on U251 CNS: recorded values

Example compounds with recorded GI50:
N#CC(C#N)=C/C=C(\Cl)c1ccc(Cl)cc1 = 6.9 µM
Nc1nc2ccc(-c3nc4ccc5[nH]ncc5c4c4c3CCC4)cc2s1 = 0.241 µM
c1ccc(-c2nc(-c3ccccn3)nc(-c3ccccn3)n2)nc1 = 48.6 µM

Prompt: Provide the reported GI50 (system: U251 CNS) for Clc1ccc(-c2cn3ccnc3c(-c3ccc(Cl)cc3)n2)cc1
Response: 12.9 µM

Prompt: Retrieve GI50 on U251 CNS; query CCCCN(CCCC)Cc1cc(Nc2ccnc3cc(Cl)ccc23)ccc1O
Response: 7.82 µM

###

- System: SN12C renal
- TEST DETAILS: NCI tumour cell line growth inhibition, 48 h
MEASURE NAME: TGI

Guide cases for TGI, answers given:
CCSC1=NC2C(N(CC)C(=O)N2CC)N1/N=C/C=C/c1ccccc1[N+](=O)[O-] (stereo not drawn) = > 100 µM
Cc1nc(C(N)=O)c(N)n1CCN1CCN(C(=O)CCCCCCCCCCNC2N=CNc3nc[nH]c32)CC1 (stereo not drawn) = > 100 µM

Prompt: Report TGI for N#Cc1c(-c2ccc(Cl)cc2)c2c(nn3c4ccc5ccccc5c4nnc23)[nH]c1=O
Response: 12.2 µM

Prompt: Look up and state reported TGI for CC1=C2C(=C[C@@](C)(CO)[C@@H]2OC(=O)N(C)CCN(C)C(=O)OC(C)(C)C)C(=O)[C@](C)(O)C12CC2
Response: > 50 µM

Prompt: Write down TGI measured for item CCOC(=O)NC(=O)c1cn(CCN2CCN(C(=O)NCCCCCCNC(=O)N3CCN(CCn4cc(C(=O)NC(=O)OCC)c(=O)[nH]c4=O)CC3)CC2)c(=O)[nH]c1=O
Response: > 100 µM

Prompt: Read off the recorded TGI for NC(=O)Nc1c(Cl)cc(S(N)(=O)=O)cc1Cl
Response: > 100 µM

###

- Tested on: HS 578T breast
- TEST DETAILS: NCI tumour cell line growth inhibition, 48 h
MEASURE NAME: TGI

Clc1ccc(-c2cn3ccnc3c(-c3ccc(Cl)cc3)n2)cc1 = 92.4 µM
C#CCNC(CSSCC(N)C(=O)O)C(=O)O (centres undefined) = > 100 µM
N#CN1C2CCC1CC(=O)C2 = > 100 µM

Then this compound:
Prompt: Indicate the recorded TGI value for this compound: CC1=C2C(=C[C@@](C)(CO)[C@@H]2OC(=O)N(C)CCN(C)C(=O)OC(C)(C)C)C(=O)[C@](C)(O)C12CC2
Response: > 50 µM

###

- Test system: HS 578T breast
- TEST DETAILS: NCI tumour cell line growth inhibition, 48 h
MEASURE NAME: GI50

Example cases with answers are listed next.
O=S(=O)(Nc1ccc(Br)cc1)c1ccc(-c2cnc(C3CC3)o2)cc1 = 1380 nM
Oc1cccc(Nc2nc3ccccc3c3occc23)c1 = 13900 nM
O=C1/C(=C/c2ccc([N+](=O)[O-])cc2)CN(C(=O)CCN2CCC(=NO)CC2)C/C1=C\c1ccc([N+](=O)[O-])cc1 = 1980 nM

Prompt: State its GI50: COc1ccc(C2=Nn3c(nnc3-c3cc(Cl)cc(Cl)c3Cl)SC2)cc1
Response: 376 nM

Prompt: Hello, please tell me recorded GI50 for this one: c1ccc(-c2nc(-c3ccccn3)nc(-c3ccccn3)n2)nc1
Response: 53600 nM

###

- Test system: SNB-19 CNS
- TEST DETAILS: NCI tumour cell line growth inhibition, 48 h
Recorded TGI by entry

Below: 5 compounds and their reported TGI.
O=c1[nH]c(Nc2ccccc2)nc2c1ncn2CC(O)CSCCO (stereo unspecified) = > 100 µM
CCc1c2c(nc3ccc(OCc4ccc(B(O)O)cc4)cc13)-c1cc3c(c(=O)n1C2)COC(=O)[C@]3(O)CC = > 39.6 µM
COc1ccc(-c2noc(C(=O)O)c2-c2cc(OC)c(OC)c(OC)c2)cc1 = > 100 µM
Oc1cccc(Nc2nc3ccccc3c3occc23)c1 = 22.2 µM
Oc1cc(Cc2ccccc2)c(Cc2ccccc2)cc1O = > 10 µM

Attention now turns to another entry.
Prompt: Consider the compound CCOc1ccccc1CCN=C1NC(=O)/C(=C/c2ccc3ncccc3c2)S1 . State its measured TGI.
Response: > 25 µM

###

- Tested on: SNB-75 CNS
- TEST DETAILS: NCI tumour cell line growth inhibition, 48 h; in the data active = GI50 below about 0.43 µM; inactive = the rest
Pick from y = active, n = inactive when you respond.

As a guide, the following entries are already answered.
Cc1c2cnccc2c(C)c2c1c1cc(C#N)ccc1n2C = y
CC[O-].CC[O-].O=C([CH-]C(=O)c1ccccc1)CCCCCCCCC(=O)[CH-]C(=O)c1ccccc1.[Ti+4] = n
COc1cccc(-c2nc3cc(NC(=O)c4ccc(Cl)c(C#N)c4)ccc3o2)c1 = n
CC(CO)Nc1cc(-c2[nH]c3cccnc3c2-c2ccc(F)cc2)ccn1 (configuration not stated) = n
O=C(O)c1nc(NCc2nc3cc(Cl)ccc3o2)n[nH]1 = n

Prompt: Any idea what this test logged for CCOC(=O)Oc1c(OC)cc(C(=O)c2ccc(OC)c(O)c2OC)cc1OC ?
Response: n

Prompt: Lab log entry: N#C[Se]Cc1cc(-c2ccccc2)n(-c2ccc(S(N)(=O)=O)cc2)n1 — outcome as called in the assay?
Response: n

###

# TGI annotations
- Test system: KM12 colon
- TEST DETAILS: NCI tumour cell line growth inhibition, 48 h

Consider the reported TGI for these compounds:
Cc1c(OC(C)C(=O)O)ccc2c(-c3ccccc3)cc(=O)oc12 (stereo unspecified) = > 100 µM
N=C1C(O)C2(I)c3ccccc3N3C(=N)C(O)C4c5ccccc5N1C4C32 (stereo unspecified) = 34.8 µM
C1=C(c2ccccc2)SC(N2CCCCC2)S1 (stereo unspecified) = > 100 µM
c1ccc(/C(=N/Nc2nc3ccccc3s2)C2CCCCC2)nc1 = 29.6 µM
Cc1ccc2nc(SCC(=O)N=Nc3c(O)[nH]c4ccccc34)n(-c3ccccc3)c(=O)c2c1 = 27.9 µM

Prompt: Please give the documented TGI of COc1cc(/C=C2\C(=O)N(c3cccc([N+](=O)[O-])c3)C(c3ccccc3)S2(=O)=O)cc(OC)c1OC (stereo unspecified)
Response: > 100 µM

Prompt: Retrieve TGI measured for Oc1cc(Cc2ccccc2)c(Cc2ccccc2)cc1O and print it.
Response: > 10 µM

Prompt: Give TGI for the following compound: O=c1oc2ccccc2c2c1Sc1ccccc1N2
Response: > 100 µM

Prompt: Read off the recorded TGI for COc1ccc2nccc(C3=CCC4CCN(C(=O)c5ccccc5)C3C4)c2c1 (stereo unspecified)
Response: > 100 µM

Prompt: // fetch TGI given entry CCC1(O)C(=O)OCc2c1cc1n(c2=O)Cc2cc3ccccc3nc2-1 (stereo unspecified)
Response: > 100 µM

Data origin: PubChem BioAssay (NCI)
